# study.target: Mitochondrial Respiratory Complex I (Complex I) (Mus musculus, UniProt P03888+Q91WD5+Q9DC70)
# Sequence (P03888 whole entry): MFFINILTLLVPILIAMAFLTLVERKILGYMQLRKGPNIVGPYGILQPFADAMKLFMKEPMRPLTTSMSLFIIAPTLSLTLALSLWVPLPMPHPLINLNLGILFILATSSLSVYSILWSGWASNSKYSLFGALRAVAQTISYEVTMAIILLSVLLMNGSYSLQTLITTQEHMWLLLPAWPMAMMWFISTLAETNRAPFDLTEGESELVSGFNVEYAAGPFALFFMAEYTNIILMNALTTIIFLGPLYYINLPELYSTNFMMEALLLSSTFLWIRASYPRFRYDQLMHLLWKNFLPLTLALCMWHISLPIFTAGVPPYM
# Sequence (Q91WD5 34-463): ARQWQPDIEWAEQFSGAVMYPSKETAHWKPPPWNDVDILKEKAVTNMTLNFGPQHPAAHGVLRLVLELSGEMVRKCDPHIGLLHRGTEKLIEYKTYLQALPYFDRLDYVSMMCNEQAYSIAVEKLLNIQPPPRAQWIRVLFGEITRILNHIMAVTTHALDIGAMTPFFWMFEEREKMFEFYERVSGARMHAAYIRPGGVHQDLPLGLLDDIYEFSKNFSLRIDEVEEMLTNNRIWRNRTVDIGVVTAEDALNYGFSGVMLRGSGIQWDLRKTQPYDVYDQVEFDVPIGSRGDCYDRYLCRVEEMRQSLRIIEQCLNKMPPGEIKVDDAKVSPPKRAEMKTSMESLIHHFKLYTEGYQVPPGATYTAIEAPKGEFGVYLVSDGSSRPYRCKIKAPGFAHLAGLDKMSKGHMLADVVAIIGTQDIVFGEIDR
# Sequence (Q9DC70 36-224): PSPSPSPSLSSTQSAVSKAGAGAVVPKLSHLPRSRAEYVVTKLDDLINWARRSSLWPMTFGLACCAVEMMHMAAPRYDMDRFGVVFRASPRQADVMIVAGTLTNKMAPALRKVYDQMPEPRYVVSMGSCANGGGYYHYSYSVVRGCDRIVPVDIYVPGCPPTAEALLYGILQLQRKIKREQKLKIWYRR
# experiment.description: Inhibitory activity on mitochondrial respiratory Complex I (NADH activity, mitochondria from mouse heart tissue)
# measurement.conditions: NADH 50 μM, read at 340 nm, 30 μg mouse heart mitochondrial protein
pIC50: −log10 of the molar value.
Catalogue of compounds with associated pIC50

{"compound": "COc1ccc(C[C@H]2COC(=O)[C@@H]2Cc2ccc(O)c(OCCc3ccc(C(F)(F)F)cc3)c2)cc1OC", "pIC50": 7.19}
{"compound": "COc1ccc(C[C@H]2COC(=O)[C@@H]2Cc2ccc(O)c(OCCn3cccc3)c2)cc1OC", "pIC50": 6.50}
{"compound": "COc1cc(C[C@@]2(C)C(=O)OC[C@@H]2Cc2ccc(OC)c(OC)c2)ccc1O", "pIC50": 6.29}
{"compound": "COc1ccc(C[C@H]2COC(=O)[C@@H]2Cc2ccc(O)c(OCC(O)c3ccc(C(F)(F)F)cc3)c2)cc1OC (stereo partly shown)", "pIC50": 6.19}
{"compound": "COc1cc(C[C@@]2(C)C(=O)OC[C@@H]2Cc2ccc3c(c2)OCO3)ccc1O", "pIC50": 6.38}
{"compound": "COc1ccc(C[C@H]2COC(=O)[C@@H]2Cc2ccc(O)c(OCc3ccccc3)c2)cc1OC", "pIC50": 6.33}
{"compound": "COc1ccc(C[C@H]2COC(=O)[C@@H]2Cc2ccc(O)c(OCCCc3ccccc3)c2)cc1OC", "pIC50": 7.47}

---

# study.target: Mitochondrial Respiratory Complex I (Complex I) (Mus musculus, UniProt P03888+Q91WD5+Q9DC70)
# experiment.description: Inhibitory activity on mitochondrial respiratory Complex I (NADH activity, mitochondria from mouse heart tissue)
# measurement.conditions: NADH 50 μM, read at 340 nm, 30 μg mouse heart mitochondrial protein
endpoint.label: log10 of IC50 (log10 of the value in nM)

{"compound": "COc1ccc(C[C@H]2COC(=O)[C@@H]2Cc2ccc(O)c(OCCc3ccccc3)c2)cc1OC", "log10 of IC50": 1.73}
{"compound": "COc1ccc(C[C@H]2COC(=O)[C@]2(C)Cc2ccc(OC)c(OC)c2)cc1OC", "log10 of IC50": 4.12}
{"compound": "COc1cc(C[C@H]2COC(=O)[C@]2(C)Cc2ccc(O)c(OC)c2)ccc1O", "log10 of IC50": 3.14}
{"compound": "COc1cc(C[C@@]2(CCl)C(=O)OC[C@@H]2Cc2ccc(OC)c(OC)c2)ccc1O", "log10 of IC50": 2.67}
{"compound": "COc1cc(C[C@]2(F)C(=O)OC[C@@H]2Cc2ccc(OC)c(OC)c2)ccc1O", "log10 of IC50": 3.10}
{"compound": "COc1ccc(C[C@H]2COC(=O)[C@@H]2Cc2ccc(O)c(OCC(O)c3ccccc3)c2)cc1OC (stereo partly drawn)", "log10 of IC50": 2.75}

---

Known pIC50 of a selection of molecules
# study.target: Mitochondrial Respiratory Complex I (Complex I) (Mus musculus, UniProt P03888+Q91WD5+Q9DC70)
# experiment.description: Inhibitory activity on mitochondrial respiratory Complex I (NADH activity, mitochondria from mouse heart tissue)
# measurement.conditions: NADH 50 μM, read at 340 nm, 30 μg mouse heart mitochondrial protein
pIC50: −log10 of the molar value.

{"molecular.string": "COc1cc(C[C@@]2(F)C(=O)OC[C@@H]2Cc2ccc(OC)c(OC)c2)ccc1O", "pIC50": 6.73}
{"molecular.string": "COc1ccc(C[C@H]2COC(=O)[C@]2(C)Cc2ccc(O)c(OCCc3ccccc3)c2)cc1OC", "pIC50": 6.19}
{"molecular.string": "COc1ccc(C[C@H]2COC(=O)[C@]2(C)Cc2ccc(O)c(OCC(F)(F)F)c2)cc1OC", "pIC50": 6.18}
{"molecular.string": "[2H]C([2H])([2H])Oc1cc(C[C@H]2C(=O)OC[C@@H]2Cc2ccc(OC)c(OC)c2)ccc1O", "pIC50": 6.16}

---

# IC50 per entry
# Test system: OCI-AML3 cells
# experiment.description: Viability of human acute myeloid leukemia cells OCI-AML3 (CCK8)
# Format: cell-based
# measurement.conditions: OCI-AML-3, 72 h, incubation 3 days
# Protocol: OCI-AML3 cells, suspension cells, were cultured in RPIM1640+10% FBS+1% PS culture medium at 37° C. and 5% CO2. OCI-AML3 was seeded in a 96-well plate at 20,000 cells/well, and different concentrations of compounds were added (40 μM was the highest concentration, diluted according to ¼, a total of 7 concentrations). […] After incubation for 2 hours, OD450 was detected by a microplate reader, then the effect of the compound on cell viability, IC50 value was calculated.

{"compound": "COc1cc(C[C@H]2C(=O)OC[C@@H]2Cc2ccc(OC)c(OC)c2)ccc1O [Arctigenin]", "unit.name": "nM", "IC50": 589}
{"compound": "COc1ccc(C[C@H]2COC(=O)[C@]2(C)Cc2ccc(O)c(OCC(O)c3ccc(C(F)(F)F)cc3)c2)cc1OC (some centres unmarked) [Compound B11-1c]", "unit.name": "nM", "IC50": 289}
{"compound": "[2H]C([2H])([2H])Oc1cc(C[C@H]2C(=O)OC[C@@H]2Cc2ccc(OC)c(OC)c2)ccc1O [Compound B9-1d]", "unit.name": "nM", "IC50": 602}
{"compound": "COc1ccc(C[C@H]2COC(=O)[C@@H]2Cc2ccc(O)c(OCC(F)(F)F)c2)cc1OC [Compound B9-1e]", "unit.name": "nM", "IC50": 274}
{"compound": "COc1ccc(C[C@H]2COC(=O)[C@]2(C)Cc2ccc(O)c(OCC(F)(F)F)c2)cc1OC [Compound B11-1b]", "unit.name": "nM", "IC50": 47}
{"compound": "COc1cc(C[C@@]2(Cl)C(=O)OC[C@@H]2Cc2ccc(OC)c(OC)c2)ccc1O [Compound A4-1d]", "unit.name": "nM", "IC50": 169}
{"compound": "COc1cc(C[C@@]2(C)C(=O)OC[C@@H]2Cc2ccc(OC)c(OC)c2)ccc1O [Compound A4-1a]", "unit.name": "nM", "IC50": 81}
{"compound": "COc1cc(C[C@@]2(CO)C(=O)OC[C@@H]2Cc2ccc(OC)c(OC)c2)ccc1O [Compound A4-1i]", "unit.name": "nM", "IC50": 91}

---

# Tested on: WI-38 senescent cells
# experiment.description: Viability of doxorubicin-induced senescent WI-38 human fibroblasts (MTT)
# Format: cell-based
# measurement.conditions: WI-38, 72 h, senescent cells induced by 200 nM doxorubicin, co-incubation 3 days
pIC50: −log10 of the molar value.
Catalogue of pIC50 values

{"compound": "CC1(C)CCC(c2ccc(Cl)cc2)=C(CN2CCN(c3ccc(C(=O)NS(=O)(=O)c4ccc(N[C@H](CCN5CCOCC5)CSc5ccccc5)c(S(=O)(=O)C(F)(F)F)c4)cc3)CC2)C1 [ABT263, reference compound]", "pIC50": 5.25}
{"compound": "COc1cc(C[C@@]2(CCl)C(=O)OC[C@@H]2Cc2ccc(OC)c(OC)c2)ccc1O", "pIC50": 6.00}
{"compound": "COc1cc(C[C@@]2(C)C(=O)OC[C@@H]2Cc2ccc(OC)c(OC)c2)ccc1O", "pIC50": 7.42}
